Quick list: pIC50 per entry.
test-target: KRAS G12C (GMPPNP-loaded) and cRAF (Ras-binding domain) interaction (Homo sapiens, UniProt P01116, C118S/C51S/C80L/G12C)
Construct: truncated version comprising amino acids 1-169
Sequence (P01116 1-169 isoform P01116-2 G12C/C51S/C80L/C118S): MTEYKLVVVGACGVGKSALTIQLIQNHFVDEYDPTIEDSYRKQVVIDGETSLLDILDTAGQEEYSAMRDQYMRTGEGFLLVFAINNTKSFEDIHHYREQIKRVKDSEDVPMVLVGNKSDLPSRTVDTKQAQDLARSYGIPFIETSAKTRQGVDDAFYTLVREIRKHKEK
assay-remarks: AlphaScreen inhibition of KRAS G12C and cRAF binding
reported-conditions: KRAS G12C preloaded with GTP analogue GMPPNP, 2 hours preincubation
pIC50: −log10 of the molar value.

Here is how some molecules turned out for pIC50.
C[C@@H](/C=C/C(=O)N1CC[C@@H](N(C)c2nc(OC[C@@]34CCCN3C[C@H](F)C4)nc3c(F)c(-c4cccc5cccc(Cl)c45)ncc23)C1)N(C)C	> 8.00
CC(/C=C/C(=O)N1CCN(c2nc(OC[C@@]34CCCN3C[C@H](F)C4)nc3c(F)c(-c4cccc5cccc(Cl)c45)ncc23)C[C@@H]1CC#N)N1[C@@H]2CC[C@H]1COC2 (some centres unmarked)	> 8.00
CO[C@H]1CCN([C@@H](C)/C=C/C(=O)N2CCN(c3nc(OC[C@@]45CCCN4C[C@H](F)C5)nc4c(F)c(-c5cccc6ccc(F)c(Cl)c56)ncc34)C[C@@H]2CC#N)C1	7.00 to 8.00
CO[C@H]1CCN(C(C)/C=C/C(=O)N2CCN(c3nc(OC[C@@]45CCCN4C[C@H](F)C5)nc4c(F)c(-c5cccc6ccc(F)c(Cl)c56)ncc34)C[C@@H]2CC#N)C1 (some centres unmarked)	> 8.00

Query: Would you mind telling me what pIC50 value was observed for C[C@H](/C=C/C(=O)N1CCN(c2nc(OC[C@@]34CCCN3C[C@H](F)C4)nc3c(F)c(-c4cccc5cccc(Cl)c45)ncc23)C[C@@H]1CC#N)N1C[C@H]2C[C@@H]1CO2 ?
Result: 7.00 to 8.00

====

test-target: KRAS G12C (GMPPNP-loaded) and cRAF (Ras-binding domain) interaction (Homo sapiens, UniProt P01116, C118S/C51S/C80L/G12C)
Construct: truncated version comprising amino acids 1-169
assay-remarks: AlphaScreen inhibition of KRAS G12C and cRAF binding
Assay type: biochemical
reported-conditions: KRAS G12C preloaded with GTP analogue GMPPNP, 2 hours preincubation
Reported IC50 is given for each of the following molecules.

Reference set, count: 4
C[C@@H](/C=C/C(=O)N1CC[C@@H](N(C)c2nc(OC[C@@]34CCCN3C[C@H](F)C4)nc3c(F)c(-c4cccc5ccc(F)c(F)c45)ncc23)C1)N(C)C [Compound 10]	< 10 nM
CC(/C=C/C(=O)N1CC[C@@H](N(C)c2nc(OC[C@@]34CCCN3C[C@H](F)C4)nc3c(F)c(-c4cccc(Cl)c4C4CC4)ncc23)C1)N(C)C (some centres unmarked) [Compound 35]	100 to 500 nM
C[C@@H](/C=C/C(=O)N1CCN(c2nc(OC[C@@]34CCCN3C[C@H](F)C4)nc3c(F)c(-c4cccc5cccc(Cl)c45)ncc23)C[C@@H]1CC#N)N1[C@@H]2CC[C@H]1COC2 [Compound 31]	10 to 100 nM
CC(/C=C/C(=O)N1CCN(c2nc(OC[C@@]34CCCN3C[C@H](F)C4)nc3c(F)c(-c4cccc5cccc(Cl)c45)ncc23)C[C@@H]1CC#N)N1C[C@H]2C[C@@H]1CO2 (some centres unmarked) [Compound 16]	10 to 100 nM

Query: // lookup IC50 for CC(/C=C/C(=O)N1CCN(c2nc(OCC34CCCN3CCC4)nc3c2CCN(c2cccc4cccc(Cl)c24)C3)C[C@@H]1CC#N)N1CCOCC1 (some centres unmarked) [Compound 3]
Result: 10 to 100 nM

====

test-target: KRAS G12C (GMPPNP-loaded) and cRAF (Ras-binding domain) interaction (Homo sapiens, UniProt P01116, C118S/C51S/C80L/G12C)
Construct: truncated version comprising amino acids 1-169
assay-remarks: AlphaScreen inhibition of KRAS G12C and cRAF binding
reported-conditions: KRAS G12C preloaded with GTP analogue GMPPNP, 2 hours preincubation
pIC50: −log10 of the molar value.
Measured pIC50, listed per entry for reference.

Below: 3 compounds and their reported pIC50.
C[C@H](/C=C/C(=O)N1CCN(c2nc(OC[C@@]34CCCN3C[C@H](F)C4)nc3c(F)c(-c4cccc5cccc(Cl)c45)ncc23)C[C@@H]1CC#N)N1CC2CC(C1)O2	7.00 to 8.00
CC(/C=C/C(=O)N1CCN(c2nc(OC[C@@]34CCCN3C[C@H](F)C4)nc3c(F)c(-c4cccc5cccc(Cl)c45)ncc23)C[C@@H]1CC#N)N1CC[C@@H](F)C1 (some centres unmarked)	> 8.00
CO[C@H]1CCN([C@H](C)/C=C/C(=O)N2CCN(c3nc(OC[C@@]45CCCN4C[C@H](F)C5)nc4c(F)c(-c5cccc6ccc(F)c(Cl)c56)ncc34)C[C@@H]2CC#N)C1	> 8.00

Query: Param item = CO[C@@H]1CCN(C(C)/C=C/C(=O)N2CCN(c3nc(OC[C@@]45CCCN4C[C@H](F)C5)nc4c(F)c(-c5cccc6ccc(F)c(Cl)c56)ncc34)C[C@@H]2CC#N)C1 (some centres unmarked) ; retrieve measured pIC50.
Result: > 8.00

Query: Thanks! And CC(/C=C/C(=O)N1CCN(c2nc(OC[C@@]34CCCN3C[C@H](F)C4)nc3c(F)c(-c4cccc5cccc(Cl)c45)ncc23)C[C@@H]1CC#N)N1C2COCC1C2 (some centres unmarked) ?
Result: 7.00 to 8.00

====

Examples of compounds with documented pIC50 follow.
test-target: KRAS G12C (GMPPNP-loaded) and cRAF (Ras-binding domain) interaction (Homo sapiens, UniProt P01116, C118S/C51S/C80L/G12C)
Construct: truncated version comprising amino acids 1-169
assay-remarks: AlphaScreen inhibition of KRAS G12C and cRAF binding
reported-conditions: KRAS G12C preloaded with GTP analogue GMPPNP, 2 hours preincubation
pIC50: −log10 of the molar value.

C[C@@H](/C=C/C(=O)N1CCN(c2nc(OC[C@@]34CCCN3C[C@H](F)C4)nc3c(F)c(-c4cccc5cccc(Cl)c45)ncc23)C[C@@H]1CC#N)N1CC2CC(C1)O2	6.30 to 7.00

Query: pIC50; subject: C[C@H](/C=C/C(=O)N1CCN(c2nc(OC[C@@]34CCCN3C[C@H](F)C4)nc3c(F)c(-c4cccc5cccc(Cl)c45)ncc23)C[C@@H]1CC#N)N1[C@@H]2CC[C@H]1COC2
Result: 7.00 to 8.00

Query: Param item: C[C@H](/C=C/C(=O)N1CCN(c2nc(OC[C@@]34CCCN3C[C@H](F)C4)nc3c(F)c(-c4cccc5cccc(Cl)c45)ncc23)C[C@@H]1CC#N)N1CC[C@H](F)C1
Result: ≤ 6.30

Query: Next up: C[C@H](/C=C/C(=O)N1CCN(c2nc(OCC34CCCN3CCC4)nc3c2CCN(c2cccc4cccc(Cl)c24)C3)C[C@@H]1CC#N)N(C)C
Result: > 8.00

Query: Now consider C[C@H](/C=C/C(=O)N1CC[C@@H](N(C)c2nc(OC[C@@]34CCCN3C[C@H](F)C4)nc3c(F)c(-c4cccc5ccc(F)c(Cl)c45)ncc23)C1)N(C)C .
Result: 6.30 to 7.00

Query: Another compound: C[C@@H](/C=C/C(=O)N1C[C@H](F)[C@@H](N(C)c2nc(OC[C@@]34CCCN3C[C@H](F)C4)nc3c(F)c(-c4cccc5cccc(Cl)c45)ncc23)C1)N(C)C
Result: 7.00 to 8.00

Query: Let us now turn to C[C@@H](/C=C/C(=O)N1CCN(c2nc(OC[C@@]34CCCN3C[C@H](F)C4)nc3c(F)c(-c4cccc5cccc(Cl)c45)ncc23)C[C@@H]1CC#N)N1CCOCC1
Result: 7.00 to 8.00

Query: Now the same for CC(/C=C/C(=O)N1CCN(c2nc(OC[C@@]34CCCN3C[C@H](F)C4)nc3c(F)c(-c4cccc5cccc(Cl)c45)ncc23)C[C@@H]1CC#N)N1CC[C@H](F)C1 (some centres unmarked)
Result: 7.00 to 8.00

Query: Same question for C[C@@H](/C=C/C(=O)N1CCN(c2nc(OCC34CCCN3CCC4)nc3c2CCN(c2cccc4cccc(Cl)c24)C3)C[C@@H]1CC#N)N(C)C please.
Result: 7.00 to 8.00

Query: # iterate: C[C@@H](/C=C/C(=O)N1CCN(c2nc(OCC34CCCN3CCC4)nc3c2CCN(c2cccc4cccc(Cl)c24)C3)C[C@@H]1CC#N)N1CCOCC1
Result: 7.00 to 8.00

Query: Next compound: CO[C@@H]1CCN([C@H](C)/C=C/C(=O)N2CCN(c3nc(OC[C@@]45CCCN4C[C@H](F)C5)nc4c(F)c(-c5cccc6ccc(F)c(Cl)c56)ncc34)C[C@@H]2CC#N)C1
Result: 6.30 to 7.00

====

test-target: KRAS G12C (GMPPNP-loaded) and cRAF (Ras-binding domain) interaction (Homo sapiens, UniProt P01116, C118S/C51S/C80L/G12C)
Construct: truncated version comprising amino acids 1-169
assay-remarks: AlphaScreen inhibition of KRAS G12C and cRAF binding
reported-conditions: KRAS G12C preloaded with GTP analogue GMPPNP, 2 hours preincubation
This section presents molecules with their documented IC50 values.

Example molecules with recorded IC50:
CC(/C=C/C(=O)N1CCN(c2nc(OC[C@@]34CCCN3C[C@H](F)C4)nc3c(F)c(-c4cccc5cccc(Cl)c45)ncc23)C[C@@H]1CC#N)N1CC2CC(C1)O2 (some centres unmarked)	10 to 100 nM
C[C@@H](/C=C/C(=O)N1CC[C@@H](N(C)c2nc(OC[C@@]34CCCN3C[C@H](F)C4)nc3c(F)c(-c4cccc5ccc(F)c(Cl)c45)ncc23)C1)N(C)C	≥ 500 nM
CC(/C=C/C(=O)N1CCN(c2nc(OC[C@@]34CCCN3C[C@H](F)C4)nc3c(F)c(-c4cccc5cccc(Cl)c45)ncc23)C[C@@H]1CC#N)N1CC2CCC(C1)O2 (some centres unmarked)	10 to 100 nM
C[C@H](/C=C/C(=O)N1CCN(c2nc(OC[C@@]34CCCN3C[C@H](F)C4)nc3c(F)c(-c4cccc(Cl)c4C(F)(F)F)ncc23)C[C@@H]1CC#N)N(C)C	10 to 100 nM

Query molecule follows.
Query: Dear colleague, I am looking for the recorded IC50 of the following molecule: C[C@@H](/C=C/C(=O)N1CCN(c2nc(OC[C@@]34CCCN3C[C@H](F)C4)nc3c(F)c(-c4cccc(Cl)c4C4CC4)ncc23)C[C@@H]1CC#N)N(C)C
Result: 100 to 500 nM
